Catalogue of IC50 values
- experimentalTarget: human IBAT (Homo sapiens, UniProt Q12908)
- procedureSummary: In vitro assay using Cos 7 cells, transiently expressed human IBAT
- Assay type: cell-based
- reportedConditions: [3H]-taurocholate 8 μM uptake, 37° C., 60 minutes

# molecule, quantityUnit, IC50
data = [
    ("CCCCC1(CCCC)CS(=O)(=O)c2ccc(N(C)C)cc2C(c2cccc(NC(=S)Nc3ccc(C[N+](C)(C)Cc4ccccc4)cc3F)c2)N1 (stereo not drawn)", "nM", 32),
    ("CCCCC1(CCCC)CS(=O)(=O)c2ccc(N(C)C)cc2C(c2cccc(NC(=S)Nc3ccc(C[N+]4(Cc5ccccc5)CCCC(O)C4)cc3)c2)N1 (stereo not drawn)", "nM", 45),
    ("CCC#CC[N+](C)(C)Cc1ccc(NC(=S)Nc2cccc(C3NC(CCCC)(CCCC)CS(=O)(=O)c4ccc(N(C)C)cc43)c2)cc1 (stereo not drawn)", "nM", 71),
]

* * *

- experimentalTarget: UniProt Q62633
- Sequence (Q62633 whole entry): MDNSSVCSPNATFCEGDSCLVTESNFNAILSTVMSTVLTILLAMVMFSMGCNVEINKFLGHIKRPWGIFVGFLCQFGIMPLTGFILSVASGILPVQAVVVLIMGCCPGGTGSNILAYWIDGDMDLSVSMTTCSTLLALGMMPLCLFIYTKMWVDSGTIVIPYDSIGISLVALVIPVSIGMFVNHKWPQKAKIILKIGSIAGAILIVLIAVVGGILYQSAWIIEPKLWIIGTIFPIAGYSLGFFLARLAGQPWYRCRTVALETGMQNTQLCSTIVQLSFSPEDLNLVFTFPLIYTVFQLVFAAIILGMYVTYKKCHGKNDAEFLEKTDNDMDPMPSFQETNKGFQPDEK
- procedureSummary: In vitro assay using Cos 7 cells, transiently expressed rat IBAT
- Assay type: cell-based
- reportedConditions: [3H]-taurocholate 8 μM, 37° C., 60 minutes
pIC50: −log10 of the molar value.

# compound, pIC50
records = [
    ("CCCCC1(CCCC)CS(=O)(=O)c2ccc(N(C)C)cc2C(c2cccc(NC(=S)Nc3ccc(C[N+]45CCC(c6ccccc6)(CC4)CC5)c(C)c3)c2)N1.[Br-] (stereo not shown) [EXAMPLE P341]", 8.37),
]

* * *

Catalogue of pIC50 values
- experimentalTarget: human IBAT (Homo sapiens)
- Sequence (Q12908 1-348): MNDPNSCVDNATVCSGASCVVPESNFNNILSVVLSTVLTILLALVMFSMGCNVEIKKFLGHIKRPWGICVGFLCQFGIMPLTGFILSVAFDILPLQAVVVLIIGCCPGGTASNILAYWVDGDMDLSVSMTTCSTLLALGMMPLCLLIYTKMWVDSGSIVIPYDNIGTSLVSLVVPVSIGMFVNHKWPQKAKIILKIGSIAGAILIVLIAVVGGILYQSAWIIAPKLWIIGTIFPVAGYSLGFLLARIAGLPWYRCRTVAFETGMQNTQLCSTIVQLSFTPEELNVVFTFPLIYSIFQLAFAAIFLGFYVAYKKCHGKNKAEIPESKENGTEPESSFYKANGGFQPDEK
- procedureSummary: In vitro assay using Cos 7 cells, transiently expressed human IBAT
- Type: cell-based
- reportedConditions: [3H]-taurocholate 8 μM uptake, 37° C., 60 minutes
pIC50: −log10 of the molar value.
observationType: pIC50

# compound, experimentalTarget, valueReported
data = [
    ("CCCCC1(CCCC)CS(=O)(=O)c2ccc(N(C)C)cc2C(c2cccc(NC(=S)Nc3ccc(C[n+]4ccc(C(C)(C)C)cc4)c(C(F)(F)F)c3)c2)N1 (stereo not drawn)", "human IBAT (Homo sapiens)", 7.46),
    ("CCCCC1(CCCC)CS(=O)(=O)c2ccc(N(C)C)cc2C(c2cccc(NC(=S)Nc3ccc(C[n+]4ccc(CCCO)cc4)cc3)c2)N1 (stereo not drawn)", "human IBAT (Homo sapiens)", 7.24),
    ("CCCCC1(CCCC)CS(=O)(=O)c2ccc(N(C)C)cc2C(c2cccc(NC(=S)Nc3ccc(C[n+]4ccc(-c5ccccc5)cc4)c(Cl)c3)c2)N1 (stereo not drawn)", "human IBAT (Homo sapiens)", 7.55),
    ("C#CC[N+](C)(Cc1ccccc1)Cc1ccc(NC(=S)Nc2cccc(C3NC(CCCC)(CCCC)CS(=O)(=O)c4ccc(N(C)C)cc43)c2)cc1.[Br-] (racemic)", "human IBAT (Homo sapiens)", 7.43),
    ("CCCCC1(CCCC)CS(=O)(=O)c2ccc(N(C)C)cc2C(c2cccc(NC(=S)Nc3ccc(C[n+]4ccc(C(C)=O)cc4)cc3)c2)N1 (stereo not drawn)", "human IBAT (Homo sapiens)", 7.30),
    ("CCCCC1(CCCC)CS(=O)(=O)c2ccc(N(C)C)cc2C(c2cccc(NC(=S)Nc3ccc(C[N+]45CCN(CC4)CC5)cc3)c2)N1.[Br-] (stereo not drawn)", "human IBAT (Homo sapiens)", 7.27),
    ("CCCCC1(CCCC)CS(=O)(=O)c2ccc(N(C)C)cc2C(c2cccc(NC(=S)Nc3ccc(C[n+]4ccc(-c5ccccc5)cc4)cc3)c2)N1 (stereo not drawn)", "human IBAT (Homo sapiens)", 7.52),
    ("CCCCC1(CCCC)CS(=O)(=O)c2ccc(N(C)C)cc2C(c2cccc(NC(=S)Nc3ccc(C[N+](C)(C)C(C)c4ccccc4)cc3)c2)N1 (stereo not drawn)", "human IBAT (Homo sapiens)", 7.07),
    ("CCCCC1(CCCC)CS(=O)(=O)c2ccc(N(C)C)cc2C(c2cccc(NC(=S)Nc3ccc(C[n+]4ccccc4)cc3)c2)N1 (racemic)", "human IBAT (Homo sapiens)", 7.15),
    ("CCCCC1(CCCC)CS(=O)(=O)c2ccc(N(C)C)cc2C(c2cccc(NC(=S)Nc3ccc(C[N+](C)(C)Cc4ccccc4)cc3Br)c2)N1 (stereo not drawn)", "human IBAT (Homo sapiens)", 7.43),
    ("CCCCC1(CCCC)CS(=O)(=O)c2ccc(N(C)C)cc2C(c2cccc(NC(=S)Nc3ccc(C[n+]4ccc(C(C)(C)C)cc4)cc3Br)c2)N1 (stereo not drawn)", "human IBAT (Homo sapiens)", 7.52),
    ("CCCCC1(CCCC)CS(=O)(=O)c2ccc(N(C)C)cc2C(c2cccc(NC(=S)Nc3ccc(C[N+](C)(C)Cc4ccccc4)cc3Cl)c2)N1 (stereo not drawn)", "human IBAT (Homo sapiens)", 7.34),
]

* * *

- System: Caco-2 cell
- procedureSummary: Gastrointestinal toxicity: cytotoxicity against Caco-2 cell (LDH activity)
- Format: cell-based, human
- reportedConditions: 10 μM, 2 hours; LDH activity in medium relative to cell lysis agent = 100%
Catalogue of CELL TOXICITY AGAINST Caco2 10 μM values

# compound, CELL TOXICITY AGAINST Caco2 10 μM
measured = [
    ("CCCCC1(CCCC)CS(=O)(=O)c2ccc(N(C)C)cc2C(c2cccc(NC(=S)Nc3ccc(C[n+]4ccc(C(C)(C)C)cc4)cc3)c2)N1.[Br-] (centres unmarked)", "<1%"),
    ("CCCCC1(CCCC)CS(=O)(=O)c2ccc(N(C)C)cc2C(c2cccc(NC(=S)Nc3ccc(C[N+]45CCC(c6ccccc6)(CC4)CC5)c(F)c3)c2)N1.[Br-] (centres unmarked)", "<1%"),
    ("CCCCC1(CCCC)CS(=O)(=O)c2ccc(N(C)C)cc2C(c2cccc(NC(=S)Nc3ccc(C[n+]4cccc(CCC(=O)OC)c4)cc3)c2)N1.[Br-] (centres unmarked)", "<1%"),
    ("CCCCC1(CCCC)CS(=O)(=O)c2ccc(N(C)C)cc2C(c2cccc(NC(=S)Nc3ccc(C[N+]4(Cc5ccccc5)CCC(O)CC4)cc3)c2)N1.[Br-] (centres unmarked)", "<1%"),
    ("CCCCC1(CCCC)CS(=O)(=O)c2ccc(N(C)C)cc2C(c2cccc(NC(=S)Nc3ccc(C[N+]45CCC(c6ccccc6)(CC4)CC5)c(C)c3)c2)N1.[Br-] (centres unmarked)", "<1%"),
    ("CCCCc1ccc[n+](Cc2ccc(NC(=S)Nc3cccc(C4NC(CCCC)(CCCC)CS(=O)(=O)c5ccc(N(C)C)cc54)c3)cc2)c1.[Br-] (centres unmarked)", "<1%"),
    ("CCCCC1(CCCC)CS(=O)(=O)c2ccc(N(C)C)cc2C(c2cccc(NC(=S)Nc3ccc(C[n+]4ccccc4CCC)cc3)c2)N1.[Br-] (centres unmarked)", "<1%"),
    ("CCCCC1(CCCC)CS(=O)(=O)c2ccc(N(C)C)cc2C(c2cccc(NC(=S)Nc3ccc(C[N+]45CCC(c6ccccc6)(CC4)CC5)cc3F)c2)N1.[Br-] (centres unmarked)", "<1%"),
    ("CCCCCC1(CCCCC)CS(=O)(=O)c2ccc(N(C)C)cc2C(c2cccc(NC(=S)Nc3ccc(C[N+]45CCC(CC4)CC5)cc3)c2)N1.[Br-] (racemic)", "<1%"),
    ("C#CC[N+](C)(Cc1ccccc1)Cc1ccc(NC(=S)Nc2cccc(C3NC(CCCC)(CCCC)CS(=O)(=O)c4ccc(N(C)C)cc43)c2)cc1.[Br-] (racemic)", "<1%"),
    ("CCCCC1(CCCC)CS(=O)(=O)c2ccc(N(C)C)cc2C(c2cccc(NC(=S)Nc3ccc(C[N+]45CCC(c6ccccc6)(CC4)CC5)c(Cl)c3)c2)N1.[Br-] (centres unmarked)", "<1%"),
]

* * *

- experimentalTarget: human IBAT (Homo sapiens)
- procedureSummary: In vitro assay using Cos 7 cells, transiently expressed human IBAT
- Format: cell-based
- reportedConditions: [3H]-taurocholate 8 μM uptake, 37° C., 60 minutes
pIC50: −log10 of the molar value.

# compound, pIC50
data = [
    ("CCCCC1(CCCC)CS(=O)(=O)c2ccc(N(C)C)cc2C(c2cccc(NC(=S)Nc3ccc(C[N+]45CCC(c6ccccc6)(CC4)CC5)c(C(F)(F)F)c3)c2)N1.[Br-] (stereo not drawn) [EXAMPLE P348]", 7.66),
    ("CCCCC1(CCCC)CS(=O)(=O)c2ccc(N(C)C)cc2C(c2cccc(NC(=S)Nc3ccc(C[n+]4ccc(-c5ccccc5)cc4)c([N+](=O)[O-])c3)c2)N1 (stereo not drawn) [EXAMPLE P385]", 7.25),
    ("CCCCC1(CCCC)CS(=O)(=O)c2ccc(N(C)C)cc2C(c2cccc(NC(=S)Nc3ccc(C[N+]45CCC(CC4)CC5)c(Br)c3)c2)N1 (stereo not drawn) [EXAMPLE P323]", 7.49),
    ("CCCCC1(CCCC)CS(=O)(=O)c2ccc(N(C)C)cc2C(c2cccc(NC(=S)Nc3ccc(C[N+]45CCC(c6ccccc6)(CC4)CC5)cc3F)c2)N1 (stereo not drawn) [Example P316]", 7.55),
    ("CCCCC1(CCCC)CS(=O)(=O)c2ccc(N(C)C)cc2C(c2cccc(NC(=S)Nc3ccc(C[N+](C)(C)Cc4ccccc4)c(F)c3)c2)N1 (stereo not drawn) [EXAMPLE P331]", 7.46),
    ("CCCCC1(CCCC)CS(=O)(=O)c2ccc(N(C)C)cc2C(c2cccc(NC(=S)Nc3ccc(C[N+]4(CC)CCCC4)cc3)c2)N1 (stereo not drawn) [EXAMPLE 3568]", 7.03),
    ("CCCCCCCCC[N+](C)(C)Cc1ccc(NC(=S)Nc2cccc(C3NC(CCCC)(CCCC)CS(=O)(=O)c4ccc(N(C)C)cc43)c2)cc1 (stereo not drawn) [EXAMPLE 3413]", 7.14),
    ("CCCCCCCC[N+](C)(C)Cc1ccc(NC(=S)Nc2cccc(C3NC(CCCC)(CCCC)CS(=O)(=O)c4ccc(N(C)C)cc43)c2)cc1 (stereo not drawn) [EXAMPLE 3412]", 7.12),
    ("CCCCC1(CCCC)CS(=O)(=O)c2ccc(N(C)C)cc2C(c2cccc(NC(=S)Nc3ccc(C[N+](C)(C)CCOC(=O)c4ccccc4)cc3)c2)N1 (stereo not drawn) [EXAMPLE 3558]", 7.15),
    ("CCCCC1(CCCC)CS(=O)(=O)c2ccc(N(C)C)cc2C(c2cccc(NC(=S)Nc3ccc(C[n+]4ccc(C(C)(C)C)cc4)cc3)c2)N1.[Br-] (stereo not drawn) [EXAMPLE 3713]", 7.43),
    ("CCCCC1(CCCC)CS(=O)(=O)c2ccc(N(C)C)cc2C(c2cccc(NC(=S)CCCCC[N+]34CCC(CC3)C(O)C4)c2)N1 (stereo not drawn) [EXAMPLE 3854]", 7.55),
    ("CCCCC1(CCCC)CS(=O)(=O)c2ccc(N(C)C)cc2C(c2cccc(NC(=S)Nc3ccc(C[n+]4cccc(-c5ccccc5)c4)cc3)c2)N1 (stereo not drawn) [EXAMPLE 3724]", 7.16),
    ("CCCCC1(CCCC)CS(=O)(=O)c2ccc(N(C)C)cc2C(c2cccc(NC(=S)Nc3ccc(C[n+]4cccc(Cc5ccccc5)c4)cc3)c2)N1 (stereo not drawn) [EXAMPLE 3725]", 7.28),
    ("CCCCC1(CCCC)CS(=O)(=O)c2ccc(N(C)C)cc2C(c2cccc(NC(=S)Nc3ccc(C[n+]4ccc(C(C)(C)C)cc4)c(F)c3)c2)N1 (stereo not drawn) [EXAMPLE P367]", 7.64),
    ("CCCCC1(CCCC)CS(=O)(=O)c2ccc(N(C)C)cc2C(c2cccc(NC(=S)Nc3ccc(C[N+](C)(C)CC(C)O)cc3)c2)N1 (racemic) [EXAMPLE 3454]", 7.17),
]
